- experimental.target: glucosylceramide synthase (GCS) (Homo sapiens (Human), UniProt Q16739)
- Sequence (Q16739 whole entry, looked up): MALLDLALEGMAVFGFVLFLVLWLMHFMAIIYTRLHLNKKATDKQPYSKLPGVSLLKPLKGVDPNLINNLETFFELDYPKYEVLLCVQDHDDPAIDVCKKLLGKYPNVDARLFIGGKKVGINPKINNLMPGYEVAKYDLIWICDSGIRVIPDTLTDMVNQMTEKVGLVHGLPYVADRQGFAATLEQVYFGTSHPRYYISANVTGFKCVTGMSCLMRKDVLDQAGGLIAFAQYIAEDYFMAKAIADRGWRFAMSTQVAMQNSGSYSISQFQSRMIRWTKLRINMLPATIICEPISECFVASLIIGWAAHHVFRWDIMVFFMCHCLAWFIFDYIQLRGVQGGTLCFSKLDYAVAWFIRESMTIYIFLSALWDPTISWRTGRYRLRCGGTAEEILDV
- test.description: Evaluation of inhibitory activities against GCS (enzyme reaction with A549 cell lysate, NBD C6-ceramide, HPLC fluorescence)
- assay.context: GCS activity in A549 cell lysate, 37° C. for 90 minutes
measurement.type: IC50 (nM)

[[record]]
compound = "CC1(C)CCc2cc(-c3cc(F)c(F)cc3F)ccc2C1NC(=O)O[C@@H]1CN2CCC1CC2 (stereo partly shown) [Example 108]"
reported_value = 2.55

[[record]]
compound = "CC(C)Oc1ccc(-c2ccc3c(c2)C(NC(=O)O[C@@H]2CN4CCC2CC4)CCC3)cc1 (stereo partly shown) [Example 83]"
reported_value = 39.1

[[record]]
compound = "CC(C)Cc1ccc(-c2ccc3c(c2)CCCC3NC(=O)O[C@@H]2CN3CCC2CC3)cc1 (stereo partly shown) [Example 35]"
reported_value = 9.16

[[record]]
compound = "COc1ccc(-c2ccc3c(c2)CCC2(CC2)C3NC(=O)O[C@@H]2CN3CCC2CC3)c(OC)c1 (stereo partly shown) [Example 210]"
reported_value = 23.6

[[record]]
compound = "CCCOc1ccc(-c2ccc3c(c2)CCC2(CC2)C3NC(=O)O[C@@H]2CN3CCC2CC3)cc1 (stereo partly shown) [Example 220]"
reported_value = 0.63

[[record]]
compound = "O=C(NC1CCCc2cc(-c3ccc(Cl)cc3)ccc21)O[C@@H]1CN2CCC1CC2 (stereo partly shown) [Example 2]"
reported_value = 3.04

[[record]]
compound = "CC1(C)CCc2cc(-c3ccccc3OC(F)(F)F)ccc2C1NC(=O)O[C@@H]1CN2CCC1CC2 (stereo partly shown) [Example 97]"
reported_value = 0.86

[[record]]
compound = "COc1ccc(-c2ccc3c(c2)CCC(C)(C)C3NC(=O)O[C@@H]2CN3CCC2CC3)cc1 (stereo partly shown) [Example 120]"
reported_value = 5.65

[[record]]
compound = "COCCOc1ccc(-c2ccc3c(c2)CCCC3NC(=O)O[C@@H]2CN3CCC2CC3)cc1 (stereo partly shown) [Example 25]"
reported_value = 15

[[record]]
compound = "O=C(NC1CCCc2cc(-c3cccc(F)c3)ccc21)O[C@@H]1CN2CCC1CC2 (stereo partly shown) [Example 5]"
reported_value = 0.989

[[record]]
compound = "COc1ccccc1-c1ccc2c(c1)CCCC2NC(=O)O[C@@H]1CN2CCC1CC2 (stereo partly shown) [Example 48]"
reported_value = 3.02

[[record]]
compound = "COc1ccc(-c2ccc3c(c2)CCC(C)(C)C3NC(=O)O[C@@H]2CN3CCC2CC3)c(F)c1 (stereo partly shown) [Example 148]"
reported_value = 3.21

[[record]]
compound = "COc1cc2c(cc1-c1ccc(CC(C)C)cc1)CCC(C)(C)C2NC(=O)O[C@@H]1CN2CCC1CC2 (stereo partly shown) [Example 236]"
reported_value = 0.53

[[record]]
compound = "CCc1cccc(-c2ccc3c(c2)CCCC3NC(=O)O[C@@H]2CN3CCC2CC3)c1 (stereo partly shown) [Example 38]"
reported_value = 1.7

[[record]]
compound = "CC1(C)CCc2ccc(-c3cccc(F)c3)cc2C1NC(=O)O[C@@H]1CN2CCC1CC2 (stereo partly shown) [Example 155]"
reported_value = 21

[[record]]
compound = "O=C(NC1c2cc(-c3cccc(Cl)c3)ccc2CCC12CC2)O[C@@H]1CN2CCC1CC2 (stereo partly shown) [Example 176]"
reported_value = 14.9

[[record]]
compound = "O=C(NC1c2cc(-c3cccc(OC(F)(F)F)c3)ccc2CCC12CC2)O[C@@H]1CN2CCC1CC2 (stereo partly shown) [Example 178]"
reported_value = 22.7

[[record]]
compound = "CCCOc1c(C)cc(-c2ccc3c(c2)CCC(C)(C)C3NC(=O)O[C@@H]2CN3CCC2CC3)cc1C (stereo partly shown) [Example 146]"
reported_value = 1.8

[[record]]
compound = "Cc1ccc(-c2ccc3c(c2)C(NC(=O)O[C@@H]2CN4CCC2CC4)CCC3)cc1 (stereo partly shown) [Example 57]"
reported_value = 23.4

[[record]]
compound = "O=C(NC1c2cc(-c3ccc(F)cc3)ccc2CCC12CC2)O[C@@H]1CN2CCC1CC2 (stereo partly shown) [Example 171]"
reported_value = 5.33

[[record]]
compound = "CCCCc1ccc(-c2ccc3c(c2)CCCC3NC(=O)O[C@@H]2CN3CCC2CC3)cc1 (stereo partly shown) [Example 33]"
reported_value = 3.95

[[record]]
compound = "COCCOc1ccc(-c2ccc3c(c2)CCC2(CC2)C3NC(=O)O[C@@H]2CN3CCC2CC3)cc1 (stereo partly shown) [Example 194]"
reported_value = 1.03

[[record]]
compound = "O=C(NC1c2cc(-c3ccc(Cl)cc3)ccc2CCC12CC2)O[C@@H]1CN2CCC1CC2 (stereo partly shown) [Example 172]"
reported_value = 4.83

[[record]]
compound = "CC1(C)CCc2cc(-c3ccccc3C(F)(F)F)ccc2C1NC(=O)O[C@@H]1CN2CCC1CC2 (stereo partly shown) [Example 96]"
reported_value = 1.79

[[record]]
compound = "O=C(NC1CCCc2cc(-c3ccnc4[nH]ccc34)ccc21)O[C@@H]1CN2CCC1CC2 (stereo partly shown) [Example 54]"
reported_value = 61.8

[[record]]
compound = "CC1(C)CCc2cc(-c3ccnc(C(F)(F)F)c3)ccc2C1NC(=O)O[C@@H]1CN2CCC1CC2 (stereo partly shown) [Example 119]"
reported_value = 11.2

[[record]]
compound = "CC1(C)CCc2ccc(-c3cccc(C(F)(F)F)c3)cc2C1NC(=O)O[C@@H]1CN2CCC1CC2 (stereo partly shown) [Example 157]"
reported_value = 32.2

[[record]]
compound = "O=C(NC1c2cc(-c3ccccc3C(F)(F)F)ccc2CCC12CC2)O[C@@H]1CN2CCC1CC2 (stereo partly shown) [Example 181]"
reported_value = 12.7

[[record]]
compound = "COc1cc(-c2ccc3c(c2)CCC(C)(C)C3NC(=O)O[C@@H]2CN3CCC2CC3)ccc1Cl (stereo partly shown) [Example 124]"
reported_value = 1.6

[[record]]
compound = "CC1(C)CCc2cc(-c3ccc(F)cc3)ccc2C1NC(=O)O[C@@H]1CN2CCC1CC2 (stereo partly shown) [Example 86]"
reported_value = 2.6

[[record]]
compound = "O=C(NC1CCCc2ccc(-c3ccc(Cl)c(Cl)c3)cc21)O[C@@H]1CN2CCC1CC2 (stereo partly shown) [Example 70]"
reported_value = 83.9

